Assay: gradient 5% acetonitrile 3 min, to 50% in 2 min, to 85% in 15 min, held 3 min, 100 µL/min
Settings: column: Zorbax Extend-C18 2.1 x 50 mm; eluents: water / acetonitrile, 0.1% formic acid
Quantity kind: RP-LC retention time (s)

Worked set:
CCNC(=O)N1CCc2c(c(-c3nc(-c4ccc(F)cc4)no3)nn2C)C1 | 788
Cn1cnc2c(C(=O)Nc3ccc(F)cc3)nn(-c3ccc(Cl)cc3)c2c1=O | 956
C[C@H]1CN(C(=O)c2cc(F)cc(F)c2)C[C@@H]1c1nc(-c2ccncc2)no1 | 781
CC(C)(C)c1nnc(-c2ccc3c(c2)OCO3)o1 | 900

P. CCCn1c(=O)c(N2CCC(NC(=O)NCc3cccc(F)c3)CC2)nc2ccccc21
Q. O=C1Nc2cc(C(=O)N3CCN(c4ccc(Cl)cc4)CC3)ccc2N2CCCCC12 (stereo not given)
R. Cc1ccc(Nc2cc(C)nc(N3CCN(C(=O)Nc4cccc(C)c4)CC3)n2)cc1
Sequence the entries by RP-LC retention time, beginning with the highest number. Return value: ordered labels per request.
R, P, Q

I. COc1cc(CNC(=O)C2=Cc3ccccc3OC2)cc(OC)c1OC
II. O=C(NCCN1CCc2ccccc2C1)C1CCN(c2nnc3ccccn23)CC1
Higher RP-LC retention time between I and II ? Reply briefly: the label of your chosen item.
I
(I: 835 s, II: 563 s)

1. CCOc1cccc(-c2noc(CCn3nc(-c4ccc(F)cc4)ccc3=O)n2)c1
2. C=CCn1c(=O)c2ccccc2n(Cc2nc(-c3ccc(OCC)c(OC)c3)no2)c1=O
Two entries are listed, 1 and 2 . Which one carries the higher RP-LC retention time? Response format: the label of the selected entry.
1

a. COc1cccc(C(=O)NCC(=O)Nc2nc3ccccc3[nH]2)c1
b. Cc1ccccc1-c1noc(C2CCCN2C(=O)Nc2ccccc2F)n1 (stereo not given)
// which entry has the larger RP-LC retention time value, a or b ? Respond with the label that goes with your answer.
b
